// provenance: ChEMBL document CHEMBL1201862

# Assay procedure: growth suppression of PTEN-null colon cells, dose response, cell-based, HCT116 PTEN knockout (AID 1047);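 also: HCT116 colon tumor cells with PTEN knocked out; cells exposed to compound for 60 hours before readout; potency for loss of cell viability measured by luminescence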
# Type: functional
The source made the active and inactive calls. No rule for the calls is given here.

| Compound | EC50 |
| --- | --- |
| CCC(Sc1nnc2c3ccccc3n(CC)c2n1)C(=O)Nc1sc2c(c1C#N)CCCC2 (centres undefined) | 11.7 µM (active) |
| CCOC(=O)C(C(=O)OCC)C(Nc1ccc(Br)cc1)c1ccccc1 (centres undefined) | 276 µM (active) |
| COc1ccc(-c2nc3c(c4nnc(SC(C)C(=O)Nc5ccccc5)n24)COC(C)(C)C3)cc1 (centres undefined) | 9.44 µM (active) |
| Oc1[nH]c2ccccc2c1N=Nc1nc2ccccc2s1 | 26.5 µM (active) |
